Tested on: Human immunodeficiency virus
Assay: Effective concentration required to achieve 50% protection of MT-4 cells against the cytopathic effect of HIV-1 (HTLV-IIIB).
Type: functional, organism-based
Conditions: Human immunodeficiency virus 1, MT4
pEC50: −log10 of the molar value.
readout label: pEC50

[[record]]
compound = "O=c1[nH]c(=O)n(COCCO)c(Sc2ccccc2)c1Sc1ccccc1"
readout_label = "pEC50"
experimental_value = "< 4.68"

[[record]]
compound = "O=c1[nH]c(=O)n(COCCO)c(Sc2ccccc2)c1C#Cc1ccccc1"
readout_label = "pEC50"
experimental_value = "< 5.47"

[[record]]
compound = "Cc1c(OC2CCCCC2)n(COCCO)c(=O)[nH]c1=O"
readout_label = "pEC50"
experimental_value = "< 3.40"

[[record]]
compound = "Cc1c(C#Cc2ccccc2)n(COCCO)c(=O)[nH]c1=O"
readout_label = "pEC50"
experimental_value = "< 4.85"

[[record]]
compound = "C=Cc1c(C)c(=O)[nH]c(=O)n1COCCO"
readout_label = "pEC50"
experimental_value = "< 3.60"

[[record]]
compound = "CC#Cc1c(C)c(=O)[nH]c(=O)n1COCCO"
readout_label = "pEC50"
experimental_value = "< 3.60"

[[record]]
compound = "Cc1c(SC(C)(C)C)n(COCCO)c(=O)[nH]c1=O"
readout_label = "pEC50"
experimental_value = "< 3.44"

[[record]]
compound = "Cc1c(C(O)c2ccccc2)n(COCCO)c(=O)[nH]c1=O (centres undefined)"
readout_label = "pEC50"
experimental_value = "< 3.40"

[[record]]
compound = "CC#Cc1c(Sc2ccccc2)n(COCCO)c(=O)[nH]c1=O"
readout_label = "pEC50"
experimental_value = "< 4.72"


The measured values listed here are drawn from ChEMBL document CHEMBL1125739.
